Target: wt human LRRK2, catalytic site (Homo sapiens)
Construct: wt human LRRK2, catalytic site; purchased ThermoFisher/USA
Test: TR-FRET LanthaScreen Eu Kinase Binding Assay, LRRK2 wt (Example 72)
Details: Example 72 text; one statement for LRRK2 (Wt) and LRRK2 (G2019); read-out: IC50, Inhibitory Activity Toward LRRK2 (Wt)
pIC50: −log10 of the molar value.
Attribute Measured: pIC50

Query Smiles	pIC50
Cc1cn2c3c(cccc13)-c1n[nH]cc1N=C2c1c(F)cccc1F	> 8.00
CC(=O)n1cc2c3c(cccc31)-c1n[nH]cc1N=C2c1c(F)cccc1F	7.00 to 8.00
Clc1cccc(Cl)c1C1=Nc2c[nH]nc2-c2cccc3cnn1c23	> 8.00
Fc1cccc(F)c1C1=Nc2c[nH]nc2-c2cccc3ncn1c23	> 8.00

Now for the compound whose pIC50 we want.
Tell me its pIC50 given `Fc1cccc(F)c1C1=Nc2c[nH]nc2-c2cccc3cnn1c23` as the entry.
> 8.00

###

Target: wt human LRRK2, catalytic site (Homo sapiens)
Construct: wt human LRRK2, catalytic site; purchased ThermoFisher/USA
Assay: TR-FRET LanthaScreen Tb Kinase Activity Assay (Example 71)
Assay type: biochemical
Details: compounds of Table 4, 38 uM ATP, method names only wt human LRRK2, read-out: IC50, Inhibitory Activity Toward LRRK2 (Wt) and LRRK2 (G2019)
pIC50: −log10 of the molar value.
Some compounds, each annotated with its measured pIC50.

Quote pIC50 reported for Fc1cc(Cl)cc(F)c1C1=Nc2cn[nH]c2-c2cnn3c2N1CCC3 [Compound 385] please.
7.00 to 8.00

Provide only the value of recorded pIC50 for Fc1cccc(F)c1C1=Nc2cn[nH]c2-c2cnn3c2N1CC1(CC1)C3 [Compound 377]
6.00 to 7.00

Using the record for Fc1cncc(F)c1C1=Nc2cn[nH]c2-c2cnn3c2N1CCC3 [Compound 376] , state its measured pIC50.
7.00 to 8.00

###

Molecular target: wt human LRRK2, catalytic site (Homo sapiens, UniProt Q5S007)
Construct: wt human LRRK2, catalytic site; purchased ThermoFisher/USA
Sequence (Q5S007 1879-2138 limits assumed): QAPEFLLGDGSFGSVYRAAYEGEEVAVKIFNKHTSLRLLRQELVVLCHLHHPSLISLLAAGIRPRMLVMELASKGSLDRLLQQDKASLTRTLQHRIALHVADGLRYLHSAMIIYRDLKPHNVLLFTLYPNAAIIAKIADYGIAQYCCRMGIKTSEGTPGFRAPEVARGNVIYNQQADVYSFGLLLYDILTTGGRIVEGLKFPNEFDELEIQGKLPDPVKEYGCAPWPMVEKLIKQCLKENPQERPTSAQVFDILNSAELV
Test: TR-FRET LanthaScreen Tb Kinase Activity Assay (Example 71)
Format: biochemical
Settings: compounds of Table 4, 38 uM ATP, method names only wt human LRRK2, read-out: IC50, Inhibitory Activity Toward LRRK2 (Wt) and LRRK2 (G2019)
Attribute Measured: IC50

Molecule	IC50
Fc1ccc(Cl)c(F)c1C1=Nc2cn[nH]c2-c2cnn3c2N1CCC3	< 10 nM
C[C@@H]1CN2C(c3c(F)cccc3F)=Nc3cn[nH]c3-c3cnn(c32)C1 (single isomer, unassigned)	< 10 nM
Cc1n[nH]c2c1N=C(c1c(F)cccc1F)N1CCn3ncc-2c31	< 10 nM

Now consider the entry below.
Read the entry `Cc1n[nH]c2c1N=C(c1c(F)cccc1F)N1CCCn3ncc-2c31` and write its reported IC50.
< 10 nM

###

The following compounds are shown together with reported IC50 values.
Target: wt human LRRK2, catalytic site (Homo sapiens)
Construct: wt human LRRK2, catalytic site; purchased ThermoFisher/USA
Test: TR-FRET LanthaScreen Tb Kinase Activity Assay (Example 71)
Assay type: biochemical
Conditions: compounds of Table 4, 38 uM ATP, method names only wt human LRRK2, read-out: IC50, Inhibitory Activity Toward LRRK2 (Wt) and LRRK2 (G2019)

Compound	Tested On	IC50
OCc1ccc(F)c(C2=Nc3cn[nH]c3-c3cc(C(F)(F)F)cc4[nH]cc2c34)c1F	wt human LRRK2, catalytic site (Homo sapiens)	< 10 nM
Cc1n[nH]c2c1N=C(c1c(F)ccc(C#N)c1F)N1CCCn3ncc-2c31	wt human LRRK2, catalytic site (Homo sapiens)	< 10 nM
Fc1cncc(F)c1C1=Nc2c(Cl)n[nH]c2-c2cnn3c2N1CCC3	wt human LRRK2, catalytic site (Homo sapiens)	10 to 100 nM

# return recorded IC50 for input C[C@@H]1CCN2C(c3c(F)cccc3F)=Nc3cn[nH]c3-c3cnn1c32 (single isomer, unassigned)
10 to 100 nM

# return recorded IC50 for input `Fc1cc(OC(F)F)cc(F)c1C1=Nc2cn[nH]c2-c2cc(C(F)(F)F)cc3[nH]cc1c23`
10 to 100 nM

Answer with the recorded IC50 for the compound listed here: `N#Cc1ccc(F)c(C2=Nc3cn[nH]c3-c3cc(C(F)(F)F)cc4[nH]cc2c34)c1F`
< 10 nM

Look up and state reported IC50 for `Fc1ccc(Br)c(Cl)c1C1=Nc2cn[nH]c2-c2cnn3c2N1CCC3`
< 10 nM

Give IC50 for `Cc1nn2c3c1-c1[nH]ncc1N=C(c1c(F)cccc1F)N3CCC2`
100 to 1000 nM

Could you please provide reported IC50 for `Fc1cccc(F)c1C1=Nc2c(Cl)n[nH]c2-c2cnn3c2N1CCC3` ? Thanks!
< 10 nM
